tested on: HCT116; experiment: nucleolar normality score relative to DMSO (fraction of DMSO control); RPE1 is a non-cancer human cell line; higher = more normal nucleoli (less nucleolar stress)
assay.readout: nucleolar normality score

molecule	reported.value
CC(C)n1nc(-c2ccc3oc(N)nc3c2)c2c(N)ncnc21 [Sapanisertib]	0.549
COc1cccc2c1C(=O)c1c(O)c3c(c(O)c1C2=O)C[C@@](O)(C(=O)CO)C[C@@H]3O[C@H]1C[C@H](N)[C@H](O)[C@H](C)O1 [Doxorubicin]	0.253
CC(C)c1cc(C(=O)N2Cc3ccc(CN4CCN(C)CC4)cc3C2)c(O)cc1O [Onalespib]	0.434
Cc1cnc(CNC(=O)c2c(=O)c3ccc(N4CCCN(C)CC4)nc3n3c2sc2ccccc23)cn1	0.404
CCc1cnn2c(NCc3ccc[n+]([O-])c3)cc(N3CCCC[C@H]3CCO)nc12 [Dinaciclib]	0.428
